- Test summary: yeast display, Sf9 membrane polyspecificity reagent, FACS + sequencing; frameworks hold sequencing errors
Quantity kind: polyreactivity (PSR sort gate)

The value of polyreactivity (PSR sort gate) measured for the sequence QDQLVESGGGLVQAGGSLRLSCAASGSIFGRNTMGWYRQAPGKERELVAAISSSGGSTRYADSVKGRFTISRDNAKNTVYLQMNSLKPEDTAVYYCNAKRYGGRQASYNLGDYWGQGTEVTVSS turned out to be high polyreactivity

The value of polyreactivity (PSR sort gate) measured for the sequence QVQLVVSGGGLVQAGGSLRLSCAASGSLFTPYAMGWYRQAPGKERELVATISWSGGRTYYADSVKGRFTISRDNAKNPVYLQMNSLKPEDTAVYYCAARGYSSEYDYWGQGTQVTVSS turned out to be high polyreactivity

###

- Test summary: yeast display, Sf9 membrane polyspecificity reagent, FACS + sequencing; frameworks hold sequencing errors
Quantity kind: polyreactivity (PSR sort gate)

The value of polyreactivity (PSR sort gate) measured for the sequence QVQLVESGGGLVQAGGSLRLSCAASGSTFSRNAMGWSRQAPGKERELVAAISWRGGRTYYADSVKGRFTISRDNAKNTVYLQMNSLKPEDTAVYYCAAEHKYRYDYWGQGTQVTVSS turned out to be low polyreactivity

The value of polyreactivity (PSR sort gate) measured for the sequence QVQLVESGGGLVQAGGSLRLSCAASGRIFPYYAMGWYRQAPGKERELVAAITTRGGSTYYADSVKGRFTISRDNAKNTVYLQMNSLKPEDTAVYYCAAVTFGRMEYWGQGTQVTVSS turned out to be low polyreactivity

The value of polyreactivity (PSR sort gate) measured for the sequence QVQLVESGGGLVQAGGSLRLSCAASGSIFTYNAMGWYRPAPGKERELVAAINTSGSTNYADSVKGRFTISRDNAKNTVYLQMNSLKPEDTAVYYCAAGIVVTGYDYWGQGTQVTVSS turned out to be low polyreactivity

The value of polyreactivity (PSR sort gate) measured for the sequence QVQLVESGGGLVQAGGSHRLSCAASGGTFYYYTMGWYRQAPGKERELVAAISWSGGSTYYADSVKGRFTISRNNEKNTVYLQMKSLKPEDSAVYYCNAVYAGRFGSHYWGQCTQVTVSS turned out to be high polyreactivity

The value of polyreactivity (PSR sort gate) measured for the sequence QVQLVESGGGLVQAGGILRLSCAASGSTFIYNAMGLYRQAPGKEREFVASISASGGSTRYADSVKGRFTISRDNAKNTVYLQMNSLKQEDTAVYYCAKLLYLGRWRFPAGYNHWGQGTQVTVSS turned out to be high polyreactivity

The value of polyreactivity (PSR sort gate) measured for the sequence QVQLEESGGGLVQAGGSLRLSCAASGSIFFYYAMGWYRQAPGKERELVAAIRSGTSTNYADSVKGRFTISRDNAKNTVYLQMNSLKPEDTAVYYCAARFPGGCYGMDYWGQGTQVTVSS turned out to be low polyreactivity

The value of polyreactivity (PSR sort gate) measured for the sequence QVQLVESGGGLVQAGGSLRLSCAPSGYIIRQYAMGWYRQAPGKEREFVAAISQTGGSTYYADSVKGRFTISRDNAKNTVYLQMNSLKPEDTAVYYCAARYRGQRYRKLDYWGQGTQVTVSS turned out to be high polyreactivity

The value of polyreactivity (PSR sort gate) measured for the sequence QVQLVESGGGLVKAGGSLRLSCAASGSIFQSNAMGWYRQAPGKERELVAAIRTSSGGGTYADSVKGRFTISRDNAKNTVYLQINSLKPEDTAVYDCNARKNNGGKWGYDYWGQGTQVTVSS turned out to be high polyreactivity

The value of polyreactivity (PSR sort gate) measured for the sequence QVQLEESGGGLVQAGGSLRLSCAASGRILSLYAMGRYRQAPGKERELVAAIRWSGSRTYYADSVKGRFTISRDNAKNTVYLQMNSLKPEDTAVYYCAAESHYPHKPGSDYWGQGTQVTVSS turned out to be high polyreactivity

The value of polyreactivity (PSR sort gate) measured for the sequence QVQLVESGGGLVQAGGSLRLSCAASGSTFVGYAMGWYRQAPGKERELVADIDSIGGSTYYADSVKGRFTISRDYAKNTVYLQMNSLKPEDTAVYYCAARRFDTALVLYDYWGQGTQVTVSS turned out to be low polyreactivity

Next:
The value of polyreactivity (PSR sort gate) measured for the sequence QVQLVESGGGLVQAGGSLRLSCAASVSTIGTYAMGWYRQAPGKERELVAAISTGGSTYYADSVKGRFTISRANAKNTVHLQMNSLKPEDTAVYYCAALADYVRRASDYWGQGTQVTVSS turned out to be low polyreactivity
